Source: paper PMC8849047

# Assay Text: pKa by potentiometric titration (Sirius T3)
# Assay type: physicochemical
# Experimental Parameters: pKa
Criterion: pKa meeting or surpassing 10. Met: Y. Not met: N.

>>> group_label("CONC(=O)c1cccc2oc(=O)[nH]c12 [Compound 17]")
"Y"

hey, is pKa for this one >= 10? CONC(=O)c1cccc2nc[nH]c12 [Compound 18] N

Record CONC(=O)c1ccccc1NS(C)(=O)=O [Compound 16] ; criterion: pKa no lower than 10. Met? Y

Does the molecule O=C(O)c1cccc2oc(=O)[nH]c12 [Compound 3] have recorded pKa that is 10 or more? Y

Check if pKa >= 10 (inclusive). Item: COC(=O)c1cccc2nc[nH]c12 [Compound 14] Y

Hi team, for O=C(O)c1cccc2nn[nH]c12 [Compound 5] , is the recorded pKa at or above 10? N
